Provide the reported pIC50 of each item.
# study.target: NAD-dependent protein deacylase sirtuin-5, mitochondrial (Homo sapiens, UniProt Q9NXA8)
# Sequence (Q9NXA8 whole entry): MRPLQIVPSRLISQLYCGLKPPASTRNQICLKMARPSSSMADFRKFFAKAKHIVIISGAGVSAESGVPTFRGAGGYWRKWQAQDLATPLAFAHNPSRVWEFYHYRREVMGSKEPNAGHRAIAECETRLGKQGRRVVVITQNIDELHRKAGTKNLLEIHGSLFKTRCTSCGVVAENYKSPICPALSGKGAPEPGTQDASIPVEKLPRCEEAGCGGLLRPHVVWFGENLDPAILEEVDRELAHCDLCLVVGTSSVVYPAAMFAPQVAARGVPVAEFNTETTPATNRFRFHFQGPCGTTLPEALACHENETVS
# measurement.protocol: Inhibition of human recombinant N-terminal Strep2-tagged SIRT5 expressed in Escherichia coli BL21 (DE3) using Abz-GVLK(glutaryl)AY(NO2)GV-NH2 as substrate in presence of NAD+ by fluorescence assay
Residues, ends and D or L forms follow the SMILES beside them. *: point of attachment. X62 = Cc1cc(C)c(CS[C@@H](CC(=O)*)C(=O)O)c(C)c1; X16 = O=C(O)[C@H](CC(=O)*)SCc1ccc(Cl)c(Cl)c1; X23 = O=C(O)[C@@H](CC(=O)*)Sc1cccc2ccccc12; X66 = COc1ccc(CS[C@@H](CC(=O)*)C(=O)O)cc1; X48 = O=C(O)[C@@H](CC(=O)*)SCCCc1ccccc1; X69 = O=C(O)[C@@H](CC(=O)*)Sc1ccccc1; Bz = O=C(c1ccccc1)*
pIC50 is defined as minus the log10 of a concentration measured in mol/L.

Problem: Please give the measured pIC50 for this compound: CC(C)C[C@H](NC(=O)[C@@H](NC(=O)CNC(=O)c1ccccc1)C(C)C)C(=O)N[C@@H](CCCCNC(=O)C[C@@H](Sc1ccccc1)C(=O)O)C(=O)N[C@@H](CCC(=O)O)C(=O)N[C@@H](Cc1ccc(O)cc1)C(=O)NCC(=O)N[C@H](C(N)=O)C(C)C (Bz-GVLK(X69)EYGV-NH2)
Result: 5.75

Problem: COc1ccc(CS[C@@H](CC(=O)NCCCC[C@H](NC(=O)[C@H](CC(C)C)NC(=O)[C@@H](NC(=O)CNC(=O)c2ccccc2)C(C)C)C(=O)N[C@@H](CCC(=O)O)C(=O)N[C@@H](Cc2ccc(O)cc2)C(=O)NCC(=O)N[C@H](C(N)=O)C(C)C)C(=O)O)cc1 (Bz-GVLK(X66)EYGV-NH2) , same question.
Result: 5.98

Problem: Another: Cc1cc(C)c(CS[C@@H](CC(=O)NCCCC[C@H](NC(=O)[C@H](CC(C)C)NC(=O)[C@@H](NC(=O)CNC(=O)c2ccccc2)C(C)C)C(=O)N[C@@H](CCC(=O)O)C(=O)N[C@@H](Cc2ccc(O)cc2)C(=O)NCC(=O)N[C@H](C(N)=O)C(C)C)C(=O)O)c(C)c1 (Bz-GVLK(X62)EYGV-NH2)
Result: 5.28

Problem: Then this compound: CC(C)C[C@H](NC(=O)[C@@H](NC(=O)CNC(=O)c1ccccc1)C(C)C)C(=O)N[C@@H](CCCCNC(=O)C[C@@H](SCCCc1ccccc1)C(=O)O)C(=O)N[C@@H](CCC(=O)O)C(=O)N[C@@H](Cc1ccc(O)cc1)C(=O)NCC(=O)N[C@H](C(N)=O)C(C)C (Bz-GVLK(X48)EYGV-NH2)
Result: 5.69

Problem: And for CC(C)C[C@H](NC(=O)[C@@H](NC(=O)CNC(=O)c1ccccc1)C(C)C)C(=O)N[C@@H](CCCCNC(=O)C[C@@H](Sc1cccc2ccccc12)C(=O)O)C(=O)N[C@@H](CCC(=O)O)C(=O)N[C@@H](Cc1ccc(O)cc1)C(=O)NCC(=O)N[C@H](C(N)=O)C(C)C (Bz-GVLK(X23)EYGV-NH2) ?
Result: 5.66

Problem: Another compound: CC(C)C[C@H](NC(=O)[C@@H](NC(=O)CNC(=O)c1ccccc1)C(C)C)C(=O)N[C@@H](CCCCNC(=O)C[C@H](SCc1ccc(Cl)c(Cl)c1)C(=O)O)C(=O)N[C@@H](CCC(=O)O)C(=O)N[C@@H](Cc1ccc(O)cc1)C(=O)NCC(=O)N[C@H](C(N)=O)C(C)C (Bz-GVLK(X16)EYGV-NH2)
Result: 6.13
